- testProtocol: Inhibition of binding of [3H]DADLE to Opioid receptor delta 1 in guinea pig membranes
pKi: −log10 of the molar value.

molecule	pKi
C[C@H]1CN(C/C=C/c2ccccc2Cl)CC[C@@]1(C)c1cccc(O)c1	6.77
Cc1ccccc1/C=C/CN1CC[C@@](C)(c2cccc(O)c2)[C@@H](C)C1 [RTI-5989-25]	6.85
C[C@H]1CN(C/C=C/c2ccccc2)CC[C@@]1(C)c1cccc(O)c1	6.49
C[C@H]1CN(CC[C@H](O)C2CCCCC2)CC[C@@]1(C)c1cccc(O)c1	6.70

meta.source: BindingDB's records for doi:10.1021/jm030092d
